Provide the reported ratio of binding signal relative to blank control of each item.
Biological target: T1, Human 1to19 peptide (human)
T1 construct: First 19 N-terminal amino acids of human CXCR2, captured on neutravidin; also called human CXCR2 1 to19 peptide; 1-19 Nter peptide
T1 peptide: MEDFNMESDSFEDFWKGED-biotin
Test: ELISA, periplasmic extract on biotinylated peptide
Ends that are not written are not given here.
A number alone suffices; assume ratio.

Query: Sample 139D5 (VHH, Tested as periplasmic extract only; also called 139D05; not shown: C-terminal c-myc tag and His6 tag coded by the vector) VHH: EVKLVESGGGLVQAGGSLRLSCALSGRIGSINAMGWYRQVSGQQRELVAVSRSGGSTDIADSVKGRFTISRDNGKNTVYLQMDSLKPEDTAVYYCYAHTSSYSNWRVYNNDYWGQGTQVTVSS — what was its ratio of binding signal relative to blank control?
Reply: 0.8

Query: Which ratio of binding signal relative to blank control value belongs to 127D1 (VHH, Tested as periplasmic extract (pAX50) and as purified His6-tagged protein (pAX100); also called 127D01; not shown: C-terminal c-myc tag and His6 tag coded by the vector) VHH: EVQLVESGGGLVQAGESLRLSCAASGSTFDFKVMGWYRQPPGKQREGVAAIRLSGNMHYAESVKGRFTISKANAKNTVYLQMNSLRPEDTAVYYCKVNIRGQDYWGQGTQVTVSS ?
Reply: 39.5

Query: Dear colleague, I am looking for the recorded ratio of binding signal relative to blank control of the following binder: 2B2 (VHH, Tested as periplasmic extract (pAX50) and as purified His6-tagged protein (pAX100); also called 002B02; not shown: C-terminal c-myc tag and His6 tag coded by the vector) VHH: EVQLVESGGELVQPGGSLRLSCAASGSILTINAMGWYRQAPGKQRELVVRRTRGGSTTYQDSVKGRFTISADIAKKTMYLQMNSLKPEDTAVYYCMLDDRGGVYWGQGTQVTVSS
Reply: 58.6

Query: Given the entry 159B10 (VHH, Tested as periplasmic extract only; not shown: C-terminal c-myc tag and His6 tag coded by the vector) VHH: EVQLVESGGGLVQPGGSLRLSCAASGRTFSSLSMGWFRQAPGKERAFVAALTRNGGYRYYADSVKGRFTISRDVAKKTLYLQMNSLKPEDTAVYYCAADSLSGSDYLGTNLDYWGQGTQVTVSS , report its measured ratio of binding signal relative to blank control.
Reply: 0.8

Query: What ratio of binding signal relative to blank control value was documented for this binder, 163D2 (VHH, Tested as periplasmic extract (pAX50) and as purified His6-tagged protein (pAX100); also called 163D02; not shown: C-terminal c-myc tag and His6 tag coded by the vector) VHH: EVQLVESGGGLVQAGGSLRLSCAASGRTFSDYAMGWFRQAPGKEREFVAAITWNGGRVFYTASVKGRFTISRDNAKNTMYLQMNSLKPEDTAVYYCAADKDRRTDYLGHPVAYWGQGTQVTVSS ?
Reply: 0.5

Query: So what's the measured ratio of binding signal relative to blank control for this one? 139H2 (VHH, Tested as periplasmic extract only; also called 139H02; not shown: C-terminal c-myc tag and His6 tag coded by the vector) VHH: EVQLVESGGGLVQAGGSLRLSCAASGRTFSNYAMGWFRQATGKEREFVAAINKSGGNTHYAGSVKGRFTISRDNAKNTVYLQMNSLKPRDTAVYYCAASRTNPKPDYWGQGTQVTVSS
Reply: 1.7
